- Protocol Summary: protein stability index of a GFP-peptide fusion (yeast GPS) (PSI 1-4); higher = more stable; sorted into four equal gates, so the index is relative within each strain
- Run Parameters: ubr1∆
Readout Name: protein stability index

Entry Sequence	Readout Name	Quantitative Readout
IVALSSEEINQYVTQIE [PRE6]	protein stability index	3.05
SSQLNKLTDEQSSLDVA [SIR3]	protein stability index	2.97
QITLTFISELCSIEPIA [YML103C/NUP188]	protein stability index	1.82
LSIRLTNQLKSLKGLQS [RPN8]	protein stability index	1.24
IENMTKEKVSNGGVGVD [FAS2]	protein stability index	3.11
HLAVVCVDDNSKISFID [SSN2]	protein stability index	3.67
EELKDSEINEILARNDE [SNF2]	protein stability index	3.32
QTANEKHITVRLTAKRL [SRP14]	protein stability index	2.92
SGTKSEVLTYVNYLISN [YJL039C/NUP192]	protein stability index	2.58
GAVSLNPSITRLEEESS [RRP4]	protein stability index	2.35
ILVKRYSIEMKPYSGKL [ECM29]	protein stability index	2.43
EDGTSASFQIVEEDHTL [RPC19]	protein stability index	3.25
FERPAVKEEKEDMETQA [RPC53]	protein stability index	3.46
ALAEGHGDAAVLLVEKY [NAS6]	protein stability index	2.6

====

- Protocol Summary: protein stability index of a GFP-peptide fusion (yeast GPS) (PSI 1-4); higher = more stable; sorted into four equal gates, so the index is relative within each strain
- Run Parameters: pdr5∆
protein stability index values, listed per item

Entry Sequence	protein stability index
GETRMKMLNEFVKKTSE [SMC2]	3
DQDRGAARHKQHEQGTF [RRI2]	2.99
IKHKHKKVKLAVLSYYK [RPS31]	2.59
SYYELETIIFDSELNRA [RRI1]	3.13
HRLIATHTNLERDEQKR [SNF2]	3.25
SLLDKPDEAIEKVFNAY [FAS1]	3.34
TAEDSWAVISAFFREKG [RPB2]	3.02
SVNKNKRQAYAVSEKAG [RPL4A]	1.69
VTKWTNQLTESASHFEQ [YJL041W/NSP1]	3.19
IIKLVEGLANDPENKVP [RPS12]	1.77
KPHGLAARVDIGQIIFS [RPL10]	2.13
VYGEGTSRVTGILLLDS [YJL039C/NUP192]	3.31
LKLEYYNLLVKISLHKR [RPN5]	1.28
HFFQIDGFNKTFHDELN [YML103C/NUP188]	2.04

====

- Protocol Summary: protein stability index of a GFP-peptide fusion (yeast GPS) (PSI 1-4); higher = more stable; sorted into four equal gates, so the index is relative within each strain
- Run Parameters: doa10∆
Here the recorded protein stability index is given for each entry.
Readout Name: protein stability index

Entry Sequence	Quantitative Readout
YGPPGTGKTLLAKAVAA [RPT4]	2.17
ILVKRYSIEMKPYSGKL [ECM29]	1.58
KLTQKLVTAGVAAAGIT [CYT1]	2.1
KTASLGNSKDDLLDMIQ [ISW2]	1.62
YVNVAISIYNMLPPKSV [SSN2]	1.71
SVLQLFQSVQLNINNPN [SMC2]	1.88
NLLKVSVDICNNSKSRY [ECM29]	2.04
FDPSRIKDLKQREDKLK [SMC2]	2.66
LGYTHIAINFTVNHSEK [RPP1]	1.35
VLMETKNTQSPQTPLVE [SNU114]	2.95
DDSANIVNVNFMKSVIR [DIS3]	2.92
LSSHSSTNSNSKPSTAS [RPN4]	2.61
LLNTDHTLDPSLLESGS [RPO21]	2.93
AAIHAKRVTIQKKDIKL [HHT1]	2.92
IDPSVTMMTVEEKPDVT [RPT1]	2.62

Entry source: the supplement of paper PMC9732359
